Data origin, for the record: patent US10087144B2

Please go through the items and note down their pEC50.
Tested on: rat mesenteric arteries
Assay: Vasoreactivity in rat mesenteric arteries in vitro (relaxation of U46619-contracted vessels, tension myograph)
Details: Rattus norvegicus; vasorelaxation, calculated from concentration-response curves
pEC50: −log10 of the molar value.

// fetch pEC50 for O=C(N[C@@H](Cc1ccccc1)C(=O)O)c1cn(Cc2ccccc2)c2ccc(Br)cc2c1=O ; system: rat mesenteric arteries
5.80

Please indicate recorded pEC50 of O=C(O)CNC(=O)c1cn(Cc2ccccc2F)c2ccccc2c1=O measured with rat mesenteric arteries.
< 4.30

Identify measured pEC50 obtained with rat mesenteric arteries for O=C(O)CNC(=O)c1cn(Cc2ccc(OC(F)(F)F)cc2)c2ccccc2c1=O .
< 4.30

Consider the molecule Cc1cc(C)cc(Cn2cc(C(=O)NCC(=O)O)c(=O)c3ccccc32)c1 tested on rat mesenteric arteries; state its pEC50.
< 4.30

----------
System: rat mesenteric artery smooth muscle cells
Experiment: Ca2+ flux in response to Angiotensin II in isolated rat mesenteric artery smooth muscle cells (FLIPR)
Assay type: cell-based
Details: 1 μM compound; inhibition of Angiotensin II (100 nM) Ca2+ flux peak fluorescence
Hi, to clarify the labels: satisfied covers % inhibition 1 μM from 20% upward, not satisfied covers anything below 20%.

Say whether CC(C)C(NC(=O)c1cn(Cc2ccccc2)c2ccc(Br)cc2c1=O)C(=O)O (stereo not shown) [Compound 119] shows % inhibition 1 μM of 20% or more.
satisfied

Entry CC(C)(C)OC(=O)CNC(=O)c1cn(Cc2ccccc2)c2ccc(Br)cc2c1=O [Compound 62] : is its % inhibition 1 μM no less than 20%?
not satisfied

Please check the record C[C@@H]1CN(c2c(F)c(N)c3c(=O)c(C(=O)O)cn(C4CC4)c3c2F)C[C@H](C)N1 [Compound 141] and state if its % inhibition 1 μM is at or above 20%.
not satisfied

Is reported % inhibition 1 μM greater than or equal to 20% here: O=C(O)c1ccc2[nH]cc(C(=O)O)c(=O)c2c1 [Compound 111]
satisfied

Threshold query (% inhibition 1 μM >= 20%) on CC1COc2c(N3CCN(C)CC3)c(F)cc3c(=O)c(C(=O)O)cn1c23 (stereo not shown) [Compound 136]
not satisfied

Check this compound for % inhibition 1 μM at or above 20%: O=C(O)c1cn(C2CC2)c2cc(N3CCNCC3)c(F)cc2c1=O [Compound 134]
satisfied

Confirm if % inhibition 1 μM reported for the compound O=C(O)c1c[nH]c2c(C(=O)O)cccc2c1=O [Compound 109] is 20% or above.
not satisfied

hey, is % inhibition 1 μM for this one >= 20%? O=C(O)c1c[nH]c2ccc(F)cc2c1=O [Compound 114]
satisfied

Say whether CC(C)C(NC(=O)c1cn(Cc2ccccc2)c2ccccc2c1=O)C(=O)O (stereo not shown) [Compound 116] shows % inhibition 1 μM of 20% or more.
satisfied

Exam item: decide whether the reported % inhibition 1 μM for CC(=O)c1ccc2[nH]cc(C(=O)O)c(=O)c2c1 [Compound 105] is at least 20%.
satisfied

Confirm if % inhibition 1 μM reported for the compound O=C(O)c1c[nH]c2cc(C(F)(F)F)ccc2c1=O [Compound 110] is 20% or above.
satisfied

Decide: % inhibition 1 μM of O=C(O)c1c[nH]c2ccc(Br)cc2c1=O [Compound 113] >= 20%?
not satisfied

Check the entry CN(C)c1ccc2[nH]cc(C(=O)O)c(=O)c2c1 [Compound 108] : does % inhibition 1 μM equal or exceed 20%?
not satisfied

Entry Cc1cccc2c(=O)c(C(=O)O)c[nH]c12 [Compound 107] : is its % inhibition 1 μM no less than 20%?
not satisfied

# bool: % inhibition 1 μM of O=C(O)c1ccc2c(=O)c(C(=O)O)c[nH]c2c1 [Compound 106] >= 20%
satisfied

I'd appreciate it if you could say whether COc1ccc2[nH]cc(C(=O)O)c(=O)c2c1 [Compound 104] has % inhibition 1 μM at least equal to 20%.
not satisfied

Quick check, % inhibition 1 μM >= 20%? CC1COc2c(N3CCN(C)CC3)c(F)cc3c(=O)c(C(=O)O)cn1c23 (stereo not shown) [Compound 138]
not satisfied

% inhibition 1 μM >= 20% for O=C(O)c1c[nH]c2ccccc2c1=O [Compound 57] ?
not satisfied

State whether the measured % inhibition 1 μM reaches 20%, counting equality as reaching it, for Cc1ccc2[nH]cc(C(=O)O)c(=O)c2c1 [Compound 112]
satisfied

For this compound, is measured % inhibition 1 μM 20% or higher? CC(C)c1cccc2c(=O)c(C(=O)O)c[nH]c12 [Compound 103]
not satisfied

Decide: % inhibition 1 μM of CC1CCc2c(N3CCC(O)CC3)c(F)c(N)c3c(=O)c(C(=O)O)cn1c23 (stereo not shown) [Compound 142] >= 20%?
not satisfied

Decide: % inhibition 1 μM of CN1CCN(c2cc3c(cc2F)c(=O)c(C(=O)O)cn3-c2ccc(F)cc2)CC1 [Compound 144] >= 20%?
satisfied

----------
Test system: rat mesenteric arteries
Experiment: Vasoreactivity in rat mesenteric arteries in vitro (relaxation of U46619-contracted vessels, tension myograph)
Conditions: 3 μM; U46619-contracted third-order arteries
Field 'label' (enum: 1 (yes) / 0 (no)). Set to 1 (yes) when % relaxation 3 μM is strictly under 6%; else 0 (no).

Below 6% on % relaxation 3 μM? Entry CC(C)C(NC(=O)c1cnc2ccccn2c1=O)C(=O)O (centres unmarked) [Compound 120]
1 (yes)

Does this compound meet the criterion % relaxation 3 μM < 6%? CCn1cc(C(=O)O)c(=O)c2ccc(C)nc21 [Compound 137]
1 (yes)

Take the compound O=C(O)CNC(=O)c1cnc2ccccn2c1=O [Compound 121] and say whether its % relaxation 3 μM is less than 6%.
1 (yes)

Say whether its % relaxation 3 μM is strictly beneath 6%. Entry: CC(C)C(NC(=O)c1cn(Cc2ccccc2)c2ccccc2c1=O)C(=O)O (centres unmarked) [Compound 116]
1 (yes)

A record lists CC(C)C(NC(=O)c1cn(Cc2ccccc2)c2ccc(Br)cc2c1=O)C(=O)O (centres unmarked) [Compound 119] . Is its % relaxation 3 μM below 6%?
1 (yes)

Does O=C(NC(Cc1ccccc1)C(=O)O)c1cnc2ccccn2c1=O (centres unmarked) [Compound 205] have % relaxation 3 μM strictly under 6%?
0 (no)

% relaxation 3 μM strictly < 6% for this compound? CC(C)CC(NC(=O)c1cnc2ccccn2c1=O)C(=O)O (centres unmarked) [Compound 204]
0 (no)

----------
Could you please report measured inhibition at 3 µM for the items listed next?
Tested on: rat mesenteric arteries
Experiment: Vasoreactivity in rat mesenteric arteries in vitro (relaxation of U46619-contracted vessels, tension myograph)
Conditions: Rattus norvegicus; 3 μM; U46619-contracted third-order arteries
Report the value in % with no unit label.

Answer with reported inhibition at 3 µM of O=C(O)CNC(=O)c1cn(Cc2ccccc2Cl)c2ccccc2c1=O
3

Note down inhibition at 3 µM recorded for O=C(O)CNC(=O)c1cn(Cc2cccc(Cl)c2)c2ccccc2c1=O
20

Complete the entry with inhibition at 3 µM for O=C(N[C@@H](Cc1ccccc1)C(=O)O)c1cn(Cc2ccccc2)c2ccc(Br)cc2c1=O
57

Give the value of inhibition at 3 µM reported for the following: COc1ccc(Cn2cc(C(=O)NCC(=O)O)c(=O)c3ccccc32)cc1
4

Complete the entry with inhibition at 3 µM for O=C(O)c1cn(Cc2cccc(Cl)c2)c2ccccc2c1=O
6

Supply reported inhibition at 3 µM belonging to this molecule: O=C(O)CNC(=O)c1cn(Cc2ccc(OC(F)(F)F)cc2)c2ccccc2c1=O
9

Determine its reported inhibition at 3 µM: CC(C)C[C@H](NC(=O)c1cn(Cc2ccccc2)c2ccccc2c1=O)C(=O)O
0

Provide only the value of recorded inhibition at 3 µM for CCn1cc(C(=O)NCC(=O)O)c(=O)c2ccccc21
2

Quick one: give measured inhibition at 3 µM for O=C(O)CNC(=O)c1c[nH]c2ccccc2c1=O
6

For O=C(O)CNC(=O)c1cn(Cc2ccccc2F)c2ccccc2c1=O , write its inhibition at 3 µM.
13

Fill in reported inhibition at 3 µM for this entry: CC(C)(C)OC(=O)n1cc(C(=O)O)c(=O)c2ccccc21
1

Please report inhibition at 3 µM for the following molecule: Cc1cc(C)cc(Cn2cc(C(=O)NCC(=O)O)c(=O)c3ccccc32)c1
8

Specify inhibition at 3 µM for O=C(O)CNC(=O)c1cn(Cc2ccccc2)c2ccccc2c1=O and stop.
0

Output measured inhibition at 3 µM for this item: CC(C)C[C@H](NC(=O)c1cn(Cc2ccccc2)c2ccc(Br)cc2c1=O)C(=O)O
3

Look up and state reported inhibition at 3 µM for O=C(N[C@@H](Cc1ccccc1)C(=O)O)c1cn(Cc2ccccc2)c2ccccc2c1=O
10

Provide inhibition at 3 µM value for the following molecule: C[C@H](NC(=O)c1cn(Cc2ccccc2)c2ccc(Br)cc2c1=O)C(=O)O
12

Answer with the recorded inhibition at 3 µM for the molecule listed here: CC(C)(C)OC(=O)CNC(=O)c1cn(Cc2ccccc2)c2ccc(Br)cc2c1=O
55

Identify measured inhibition at 3 µM associated with C[C@H](NC(=O)c1cn(Cc2ccccc2)c2ccccc2c1=O)C(=O)O
3
